# run-description: pKa determination by UV–vis acid–base titrations in water
# Assay type: physicochemical
# condition-info: aqueous phosphate and carbonate buffers; RH^2+/R^+ or MH^+/M; UV–vis titrations in water, chloride salts
readout-label: pKa

smiles-input	pKa
C[n+]1ccc(/C=N/Nc2cc[n+](Cc3ccccc3)cc2)cc1	8.6
C[n+]1ccc(/C=N/Nc2cc[n+](C)cc2)cc1	9
C(=N\Nc1cc[n+](Cc2ccccc2)cc1)/c1cc[n+](Cc2ccccc2)cc1	8.6
C[n+]1ccc(N/N=C/c2cc[n+](Cc3ccccc3)cc2)cc1	8.7
C/C(=N\Nc1cc[n+](C)cc1)c1cc[n+](C)cc1	9.6
